Recorded clearance, one value per entry.
Assay: Pharmacokinetic and urinary clearance studies in rats
Assay type: in vivo
Conditions: male, Sprague Dawley, rat, in vivo, iv, 1 mg/kg
Structures can show the parent of a compound that is named as a salt. Where a SMILES comes first, the peptide text is derived from it. Bridges are numbered along the chain shown (N, C = ends). [ ]: non-standard residue; d: D form. The star is where a group is joined. ξ: configuration not given here. Thr(3ξ) = CC(O)[C@H](N)C(=O)O; Dab = NCC[C@H](N)C(=O)O; X1 = CCCCCCC(O)C(=O)*; GABA = NCCCC(=O)O; βAla = NCCC(=O)O
Measurement label: clearance (mL/min/kg)

- Compound: "CC(C)C[C@@H]1NC(=O)[C@@H](Cc2ccccc2)NC(=O)[C@H](CCN)NC(=O)[C@@H](NC(=O)[C@H](CCN)NC(=O)[C@@H](NC(=O)CCN)C(C)O)CCNC(=O)[C@H](C(C)O)NC(=O)[C@H](CCN)NC(=O)[C@H](CCN)NC1=O (stereo partly drawn) [Example 4, Sulphate Salt] (H-[βAla][Thr(3ξ)][Dab][Dab][Dab][dF]L[Dab][Dab][Thr(3ξ)]; lactam 4-C)"
  Measurement label: "clearance"
  Unit tag: "mL/min/kg"
  Result number: 8.2
- Compound: "CCCCCCC(O)C(=O)N[C@H](C(=O)N[C@@H](CCN)C(=O)N[C@H]1CCNC(=O)[C@H](C(C)O)NC(=O)[C@H](CCN)NC(=O)[C@H](CCN)NC(=O)[C@H](CC(C)C)NC(=O)[C@@H](Cc2ccccc2)NC(=O)[C@H](CCN)NC1=O)C(C)O (stereo partly drawn) [Example 2, Sulphate Salt] (X1-[Thr(3ξ)][Dab][Dab][Dab][dF]L[Dab][Dab][Thr(3ξ)]; lactam 3-C)"
  Measurement label: "clearance"
  Unit tag: "mL/min/kg"
  Result number: 4.18
- Compound: "CC(C)C[C@@H]1NC(=O)[C@@H](Cc2ccccc2)NC(=O)[C@H](CCN)NC(=O)[C@@H](NC(=O)[C@H](CCN)NC(=O)[C@@H](NC(=O)CCCN)[C@@H](C)O)CCNC(=O)[C@H]([C@@H](C)O)NC(=O)[C@H](CCN)NC(=O)[C@H](CCN)NC1=O [Example 6, Sulphate Salt] (H-[GABA]T[Dab][Dab][Dab][dF]L[Dab][Dab]T; lactam 4-C)"
  Measurement label: "clearance"
  Unit tag: "mL/min/kg"
  Result number: 6.43
